# EXPERIMENTAL_TARGET: the molecule itself
# ASSAY_PROCEDURE: native mass spectrometry; KD compared to the wild type IgG4 CH2-CH3 fragment
REPORTED_ENDPOINT: fold-difference (fold)
Respond with the bare value in fold.

Worked cases, fold-difference given:
{"PROTEIN": "CH2-CH3 fragment of human IgG4 with S364D (other, UniProt P01861-1 221-327, looked up, name in EU numbering, range 341-447; As m7, with the mutation; also called G4-S364D; not shown: N-terminal 6 amino acid His tag) GQPREPQVYTLPPSQEEMTKNQVDLTCLVKGFYPSDIAVEWESNGQPENNYKTTPPVLDSDGSFFLYSRLTVDKSRWQEGNVFSCSVMHEALHNHYTQKSLSLSLGK", "fold-difference (fold)": 1.02}
{"PROTEIN": "CH2-CH3 fragment of human IgG4 with R409T (other, UniProt P01861-1 221-327, looked up, name in EU numbering, range 341-447; As m7, with the mutation; also called G4-R409T; not shown: N-terminal 6 amino acid His tag) GQPREPQVYTLPPSQEEMTKNQVSLTCLVKGFYPSDIAVEWESNGQPENNYKTTPPVLDSDGSFFLYSTLTVDKSRWQEGNVFSCSVMHEALHNHYTQKSLSLSLGK", "fold-difference (fold)": 0.07}
{"PROTEIN": "CH2-CH3 fragment of wild type human IgG4 (other, UniProt P01861-1 221-327, looked up, range 341-447; His-tagged fragment without hinge; the KD is its non-covalent self-association (CH3-CH3 homodimer); not shown: N-terminal 6 amino acid His tag) GQPREPQVYTLPPSQEEMTKNQVSLTCLVKGFYPSDIAVEWESNGQPENNYKTTPPVLDSDGSFFLYSRLTVDKSRWQEGNVFSCSVMHEALHNHYTQKSLSLSLGK", "fold-difference (fold)": 1}

Attention now turns to another entry.
Prompt line: // lookup fold-difference for CH2-CH3 fragment of human IgG4 with F405L (other, UniProt P01861-1 221-327, looked up, name in EU numbering, range 341-447; As m7, with the mutation; also called G4-F405L; not shown: N-terminal 6 amino acid His tag) GQPREPQVYTLPPSQEEMTKNQVSLTCLVKGFYPSDIAVEWESNGQPENNYKTTPPVLDSDGSFLLYSRLTVDKSRWQEGNVFSCSVMHEALHNHYTQKSLSLSLGK
Response line: 0.0019
